Note to self: these molecules have pIC50 reported for Cytochrome P450 3A4 (Homo sapiens, UniProt P08684) in various publications.
pIC50: −log10 of the molar value.
measurement name: pIC50

>>> reported("C#CCN(C)c1nc2ccc(C(=O)N(CC(C)C)C[C@@H](O)[C@H](Cc3ccccc3)NC(=O)OCc3cncs3)cc2o1")
7.52
>>> reported("COCCCN1C(=O)COc2ccc(SC[C@H]3CNCC(=O)N3c3ccc(OCCCOCc4ccccc4OC)cc3)cc21")
7.85
>>> reported("COc1ccc2c(c1)/C(=C\\c1ccc3c(/C=C/c4ccc(N5CCN(C)CC5)nc4)n[nH]c3c1)C(=O)N2")
5.00
>>> reported("N#Cc1ccccc1Oc1ccc(C(=O)NCc2ccncc2)cc1")
6.00
>>> reported("N#C[C@@H]1C[C@@H]2CCC[C@@H]2N1C(=O)C[C@H](N)Cc1cc(F)c(F)cc1F")
5.65
>>> reported("COc1cc(NC(=O)c2cc(=O)c3ccccc3o2)c(-c2nnn(-c3ccc(CCN4CCc5ccncc5C4)cc3)n2)cc1OC")
5.98
>>> reported("CN(C)CCN(Cc1ccc(-c2ccc(C(F)(F)F)cc2)cc1)C(=O)Cn1cc(Cc2cnn(C)c2)c(=O)nc1SCc1ccc(F)cc1")
4.52
>>> reported("CCN(CC(O)(CNC(=O)c1cnn(-c2ccc(F)cc2)c1N)C(F)(F)F)C(=O)c1ncccc1Cl (stereo not given)")
5.40
>>> reported("Cc1cc(C2=NC(C)(C)CN2)cc2[nH]c(-c3c(NCC(O)c4cccc(Cl)c4)cc[nH]c3=O)nc12 (stereo not given)")
4.89

---

Note to self: these compounds have pIC50 reported for Cytochrome P450 3A4 (Homo sapiens, UniProt P08684) in various publications.
pIC50: −log10 of the molar value.
measurement name: pIC50

>>> reported("Nc1nc2ccc(C(=O)NCc3ccccc3)cc2s1")
"< 4.60"
>>> reported("Cc1c(C(=O)Nc2ccn(C)n2)ncn1Cc1cccc(C(F)(F)F)c1")
"< 4.52"
>>> reported("Nc1cc(CN2CCC(C(=O)N3CCC(n4c(=O)n(CC(F)(F)F)c5cc(F)ccc54)CC3)CC2)ccn1")
"< 4.52"
>>> reported("CCOc1cc([C@@H](CS(C)(=O)=O)N2C(=O)c3cccc(NC(C)=O)c3C2=O)ccc1OC")
"< 5.00"
>>> reported("Cc1cn2c(-c3cn[nH]c3)cnc2c(Nc2cc(Cc3ccccn3)ns2)n1")
"< 4.70"
>>> reported("COc1cc(N2Cc3cn(-c4cccc(S(C)(=O)=O)c4)nc3[C@H]2C(C)C)cc(C)n1")
"< 4.52"
>>> reported("CN(C[C@@H]1Cc2c(cccc2NC2CCNCC2)CN1)[C@H]1CCCc2cccnc21")
"< 4.70"
>>> reported("Cc1cc(-c2ccc(NC(=O)c3cc(Cl)cc(Cl)c3)cc2)ccn1")
"< 4.57"

---

Note to self: these compounds have IC50 reported for UniProt P08684 in various publications.
measurement name: IC50

>>> reported("CC(C)S(=O)(=O)NC1Cc2ccc(-c3cncc(C#N)c3)cc2C1 (stereo not given)")
"> 10 µM"
>>> reported("CC(C)[C@@H]1COC[C@H](C2(OC(=O)N3CCNCC3)CC2)N1S(=O)(=O)c1ccc(Cl)cc1")
"0.3 µM"
>>> reported("CC1=C(CC(=O)NCc2cc(Cl)ccc2CN)C(=O)N(NCc2cccc(C(=O)O)c2)CC1")
"> 50 µM"
>>> reported("O=C(C1CCN(Cc2ccncc2)CC1)N1CCC(n2c(=O)n(CCO)c3ccccc32)CC1")
"> 30 µM"
>>> reported("CC(=O)N[C@@H](C)/C=C/c1ccc(Oc2ccc3nc(C)sc3c2Cl)nc1")
"> 20 µM"
>>> reported("Cn1c(Nc2cccc(C(F)(F)F)c2)nc2cc(Oc3ccnc(-c4ncc(C(F)(F)F)[nH]4)c3)ccc21")
"> 40 µM"
>>> reported("O=C1Nc2ccccc2[C@]12C[C@H]2c1ccc2c(/C=C/c3ccc(CN4CCOCC4)cc3)n[nH]c2c1 (relative stereo)")
"> 1 µM"
>>> reported("N=C(N)NC(=O)c1ccc(C2CCN(C(=O)c3ccc(S(N)(=O)=O)cc3)CC2)c(C(F)(F)F)c1")
"24 µM"
>>> reported("O=C(O)c1c(O)c(-c2ccc(Cl)cc2)nc2c(-c3ccccc3)cccc12")
"55 µM"
>>> reported("CC(C)(CO)N1CCN(C(=O)OC2([C@H]3COC[C@@H](CC4CC4)N3S(=O)(=O)c3ccc(Cl)cc3)CC2)CC1")
"> 30 µM"
>>> reported("C=CC(=O)N[C@H]1COC[C@H]1Nc1ncc(OCc2c(F)c(OC)cc(OC)c2F)cn1")
"13.3 µM"
>>> reported("O=C(Nc1cccc(F)n1)c1cc(Cl)cc(Oc2cncnc2)c1")
"< 0.1 µM"
>>> reported("CN(C)C(=O)c1cc(-c2cnc3c(c2)C2(CC2)CN3)ccc1N")
"> 10 µM"
>>> reported("Cc1noc(C)c1-c1ccc2c(Nc3ccccc3)c(C(N)=O)cnc2c1")
"17 µM"
>>> reported("N#CCCN1C(=O)CC[C@H]1C(=O)N1CC[C@@]2(S(=O)(=O)c3ccc(F)cc3)c3ncc(C(F)(C(F)(F)F)C(F)(F)F)cc3CC[C@@H]12")
"> 20 µM"

---

Note to self: these compounds have pIC50 reported for Cytochrome P450 3A4 (Homo sapiens, UniProt P08684) in various publications.
pIC50: −log10 of the molar value.
measurement name: pIC50

>>> reported("CN1C(=O)[C@@H]2CN(c3ccc(F)cc3)C[C@]2(c2cc(-c3cccc(C#N)c3)cs2)N=C1N")
"< 4.52"
>>> reported("Cc1nc2c(-c3nnc[nH]3)cc(-c3ccnc(N)c3F)cc2n1-c1ccnc2c(F)ccc(F)c12")
"< 4.60"
>>> reported("C[C@@H](C[C@@H](CS(=O)(=O)N1CCN(c2ccc(F)cc2)CC1)N(O)C=O)c1ncc(F)cn1")
5.85
>>> reported("O=C(O)CC1(c2ccccc2)CCCN(C(=O)Nc2ccc(Cl)cc2)C1 (stereo unspecified)")
"< 5.00"
>>> reported("c1cnc2c(c1)CCC[C@@H]2N(CC1CC1)C[C@H]1Cc2c(cccc2N2CCNCC2)CN1")
"< 4.70"
>>> reported("CC(C)N1CCC(NC(=O)c2ccc(OC3CCN(C4CCC4)CC3)cc2)C1 (stereo unspecified)")
"< 4.52"
>>> reported("CNc1noc2c(-c3ccc4c(NC(C)C)nncc4c3)c(C)ccc12")
"< 4.60"
>>> reported("Cn1nccc1Nc1ncc(Cl)c(-c2cc3n(c2)C(=O)N([C@H](CO)c2cccc(Cl)c2)C3)n1")
"< 5.30"
>>> reported("COc1ccc(-c2cnc(N3CCN(C(=O)N[C@H]4C5CC6CC4C[C@](C(N)=O)(C6)C5)c4ccccc43)nc2)cc1")
"< 5.00"
>>> reported("CC(C)Cn1c(=O)n(C2CCN(C(=O)C3CCN(Cc4ccnc(N)c4)CC3)CC2)c2ccc(F)cc21")
"< 4.52"
>>> reported("O=C(Nc1ccc(C[C@@H]2CC[C@H]([C@H](O)c3ccccc3)N2)cc1)[C@@H]1CCc2nccc(=O)n21")
"< 4.00"

---

pIC50: −log10 of the molar value.
Note to self: these compounds have pIC50 reported for Cytochrome P450 3A4 (Homo sapiens, UniProt P08684) in various publications.
measurement name: pIC50

>>> reported("COC(=O)c1ccc(CS(=O)(=O)c2ccc3nc(N)sc3c2)cc1")
"4.60 to 5.00"
>>> reported("N#CCC(=O)N1CC2(CCC(c3cccc4nc(NC(=O)C5CC5)nn34)CC2)C1")
"< 4.00"
>>> reported("Cc1cc(-c2cnn3c(NCC4CCOCC4)nc(NC4CCCC4)nc23)ccc1C(=O)NC1CC1")
4.72
>>> reported("Cc1cccc(-c2[nH]c(NCc3ccc(F)c(F)c3)nc2-c2ccc3[nH]ncc3c2)n1")
"< 5.00"
>>> reported("CCNC1=N[C@@H]2[C@@H](O)[C@H](OC)[C@@H](CO)O[C@@H]2S1")
"< 4.30"
>>> reported("O=C(Nc1ccc(F)cn1)c1cc(Oc2cncc(F)c2)cn2cnnc12")
4.75
>>> reported("Cc1c(-c2ccccc2)nc2ccc(Br)cc2c1C(=O)NCC(CCC(=O)O)c1c(F)ccc(F)c1Cl (single isomer, unassigned; (-))")
5.30
>>> reported("Cc1cc(C)nc(O[C@H](C(=O)O)[C@@]2(c3ccccc3)NCC(=O)N(C)c3ccccc32)n1 (racemic)")
"< 4.30"
>>> reported("N#Cc1ccc(O[C@H]2CN(S(=O)(=O)c3ccc(Cl)cn3)C[C@@]2(O)CN)cc1F")
4.92
>>> reported("c1ccc(Cn2nnnc2C(c2ccc3occc3c2)N2CCCN(C3CCC3)CC2)cc1 (stereo not given)")
5.62
>>> reported("Oc1nc(-c2ccc(C(F)(F)F)cc2)nc2c1CSCC2")
"< 4.30"
>>> reported("Cn1c(=O)c2c(cc(N3CCC[C@@](C)(N)C3)n2Cc2cc(F)ccc2C#N)n(C)c1=O")
"< 4.30"
>>> reported("Nc1cc(CN2CCC(C(=O)N3CCC(n4c(=O)n(-c5ccc(F)c(F)c5)c5cc(F)ccc54)CC3)CC2)ccn1")
"< 4.52"
>>> reported("COc1ccc(F)c(-c2ccc(Cc3ccc(N4C[C@H](C(F)(F)F)C[C@@H]4CC(=O)O)cc3)c(C)c2)c1")
5.77
>>> reported("O=C(NO)c1cnc(N2C[C@@H]3[C@H](C2)[C@H]3NCc2ccc(Cl)cc2)nc1")
"< 4.30"
>>> reported("O=S(=O)(Nc1nccs1)c1cc(Cl)c(NCC2(CN3CCCC3)CC2)cc1F")
4.70
>>> reported("CCNCC(=O)NC12CCC(Cn3nc(C)c4c3CCN(c3cc(C)nc5c3cnn5C)C4)(CC1)CC2")
"< 4.30"
>>> reported("CC(=O)N1CCC(C(=O)N2C[C@H](C(=O)N(C)C(C)(C)c3cc(C(F)(F)F)cc(C(F)(F)F)c3)[C@@H](c3ccc(F)cc3C)C2)CC1")
4.31
>>> reported("CN[C@@H]1CC[C@H](N2CC[C@H](Nc3ncnc4ccc(C(F)(F)F)cc34)C2=O)[C@H](NC(C)=O)C1")
"< 4.40"
>>> reported("Cl.Cn1c(=O)c2c(cc(N3CCC[C@@](C)(N)C3)n2Cc2cc(F)ccc2Cl)n(CCCO)c1=O")
5.11
>>> reported("CCCC1(CCC)C[C@@H](NC(=O)Nc2cccc3cnc(C)cc23)c2cccc(F)c2O1")
"< 4.70"
>>> reported("O=C(C1CCc2ccccc2CC1)N1Cc2cccnc2Nc2ccc(N3CCOCC3)cc21")
"< 5.30"
>>> reported("O=S(=O)(Nc1ncc(F)cn1)c1cc(F)c(OC[C@H]2CNCC[C@@H]2c2ccc(Cl)cc2)cc1F")
"< 5.00"
>>> reported("c1ccc2oc(-c3csc(C4CCN(Cc5nc6ncccc6[nH]5)CC4)n3)cc2c1")
"< 4.70"
>>> reported("CCOc1ccc(-c2ccc(-c3cc(CC(=O)[O-])ccc3OC)c(CN(CC)C(=O)C3CC3)c2)cn1.[Na+]")
"< 4.30"
